// provenance: patent US20230303553A1

- Tested on: human breast cancer (MCF-7)
- Run description: MTT cancer cell proliferation, MCF-7
- Assay type: cell-based
- Assay conditions: MCF7, MTT, 72 hours, read-out: IC50 proliferation MCF-7

{"Compound": "CC(=O)c1c(C)c2cnc(Nc3ccc(N4CCNCC4)cn3)nc2n(C2CCCC2)c1=O [Palbociclib, reference compound]", "IC50": "4.49 µM"}

----------
- System: liver cancer (HepG2) cell line
- Run description: MTT cancer cell proliferation, HepG2
- Assay type: cell-based
- Assay conditions: Homo sapiens, HepG2, 72 h, read-out: IC50 proliferation HepG2
pIC50: −log10 of the molar value.
Readout name: pIC50

{"Smiles structure": "CCN1CCN(C(=O)c2ccc(Nc3ncc(F)c(-c4ccc5nc(N(C)C)sc5c4)n3)nc2)CC1", "Value observed": 5.81}
